Ki values by entry
# system under test: Human immunodeficiency virus type 1 protease (Human immunodeficiency virus 1)
measurement kind: Ki (nM)

| compound | unit abbreviation | data value |
| --- | --- | --- |
| CC(C)[C@H](NC(=O)OCc1ccccc1)C(=O)N[C@@H](Cc1ccccc1)[C@@H](O)[C@H](CO)[C@H](Cc1ccccc1)NC(=O)OC(C)(C)C | nM | 290 |
| CC(C)(C)C(NC(=O)OCc1ccccc1)C(=O)N[C@@H](Cc1ccccc1)[C@@H](CO)[C@H](O)[C@H](Cc1ccccc1)NC(=O)[C@@H](NC(=O)OCc1ccccc1)C(C)(C)C (single isomer, unassigned; diastereomer A) | nM | 13 |
| CC(C)C(NC(=O)OCc1ccccc1)C(=O)N[C@@H](Cc1ccccc1)[C@H](CO)[C@@H](O)[C@H](Cc1ccccc1)NC(=O)[C@@H](NC(=O)OCc1ccccc1)C(C)C (single isomer, unassigned; diastereomer B) | nM | 510 |
| CC(C)[C@H](NC(=O)OCc1ccccc1)C(=O)N[C@@H](Cc1ccccc1)[C@@H](O)[C@H](CO)[C@H](Cc1ccccc1)NC(=O)C(NC(=O)OCc1ccccc1)C(C)(C)C (some centres undefined) | nM | 16 |
